Source listed as ChEMBL document CHEMBL3352799.

recorded_endpoint: pIC50
Answer as the number alone; pIC50 is minus log10 of concentration in mol/L.

The measured pIC50 that `CCOC(=O)CNC(=O)c1ccc(NC(=O)CSc2ncncc2-c2cccc3ccccc23)c(Cl)c1` showed for UniProt:Q72547 is 5.88

====

Test: Selectivity index, ratio of CC50 for human MT4 cells to EC50 for HIV1 3B infected in human MT4 cells
Type: toxicity, cell-based
Conditions: read-out: Ratio CC50/EC50
Param threshold (20) applies to selectivity ratio; output class 1 when value >= threshold, class 0 when value < threshold.

Decide: selectivity ratio of `O=C(CSc1ncncc1-c1cccc2ccccc12)Nc1ccccc1[N+](=O)[O-]` >= 20?
class 1

Decide: selectivity ratio of `CCOC(=O)c1ccc(NC(=O)CSc2ncncc2-c2cccc3ccccc23)c(Cl)c1` >= 20?
class 1

Decide: selectivity ratio of `O=C(CSc1ncncc1-c1cccc2ccccc12)Nc1ccc(C(=O)O)nc1Cl` >= 20?
class 0

Decide: selectivity ratio of `NS(=O)(=O)c1ccc(NC(=O)CSc2ncncc2-c2cccc3ccccc23)c(Br)c1` >= 20?
class 1

Decide: selectivity ratio of `CCOC(=O)CNC(=O)c1ccc(NC(=O)CSc2ncncc2-c2cccc3ccccc23)c(Cl)c1` >= 20?
class 1

Decide: selectivity ratio of `O=C(CSc1ncncc1-c1cccc2ccccc12)Nc1ccc(C(=O)NO)cc1Cl` >= 20?
class 0

Decide: selectivity ratio of `CONC(=O)c1ccc(NC(=O)CSc2ncncc2-c2cccc3ccccc23)c(Cl)c1` >= 20?
class 1

Decide: selectivity ratio of `Brc1ccccc1Cn1cc(CSc2ncncc2-c2cccc3ccccc23)nn1` >= 20?
class 0

Decide: selectivity ratio of `O=C(CSc1nccnc1-c1ccccc1Cl)Nc1ccccc1[N+](=O)[O-]` >= 20?
class 1

Decide: selectivity ratio of `COC(=O)c1ccc(NC(=O)CSc2ncncc2-c2cccc3ccccc23)c(Br)c1` >= 20?
class 1

Decide: selectivity ratio of `COC(=O)c1ccc(NC(=O)CSc2ncncc2-c2cccc3ccccc23)c(Cl)c1` >= 20?
class 1

Decide: selectivity ratio of O=C1Nc2ccc(Cl)cc2[C@@](C#CC2CC2)(C(F)(F)F)O1 [EFAVIRENZ] >= 20?
class 1

====

Tested on: Human immunodeficiency virus 2
Test: Antiviral activity against HIV2 ROD infected in human MT4 cells assessed as reduction in virus-induced cytopathogenicity by MTT assay
Type: functional, organism-based
Settings: ISOLATE ROD
Active and inactive are the calls of the source. No cut-off for these calls is given here.
recorded_endpoint: inhibition

>>> assay_value("O=C(CSc1ncncc1-c1cccc2ccccc12)Nc1ccc(C(=O)NO)cc1Cl")
"inactive"
>>> assay_value("COC(=O)c1ccc(NC(=O)CSc2ncncc2-c2cccc3ccccc23)c([N+](=O)[O-])c1")
"inactive"
>>> assay_value("COC(=O)c1ccc(NC(=O)CSc2ncncc2-c2cccc3ccccc23)c(Br)c1")
"inactive"
>>> assay_value("COc1ccc(Cn2cc(CSc3ncncc3-c3cccc4ccccc34)nn2)cc1")
"inactive"
>>> assay_value("COC(=O)c1ccc(NC(=O)CSc2ncncc2-c2cccc3ccccc23)c(Cl)c1")
"inactive"

response.value for `O=C(CSc1ncncc1-c1cccc2ccccc12)Nc1ccccc1[N+](=O)[O-]` (field: inhibition) = inactive

response.value for `CCOC(=O)c1ccc(NC(=O)CSc2ncncc2-c2cccc3ccccc23)c(Br)c1` (field: inhibition) = inactive

====

Kindly supply the reported CC50 values for the records listed here.
Assay: Cytotoxicity against human MT4 cells by MTT assay
Assay type: cell-based
State just the number; it will be interpreted in µM.

response.value for `O=C(CSc1ncncc1-c1cccc2ccccc12)Nc1ccc(C(=O)O)nc1Cl` (field: CC50) = 127

response.value for `COc1ccc(Cn2cc(CSc3ncncc3-c3cccc4ccccc34)nn2)cc1` (field: CC50) = 31.2

response.value for `CCOC(=O)CNC(=O)c1ccc(NC(=O)CSc2ncncc2-c2cccc3ccccc23)c(Cl)c1` (field: CC50) = 105

response.value for `COC(=O)c1ccc(NC(=O)CSc2ncncc2-c2cccc3ccccc23)c(Br)c1` (field: CC50) = 168

response.value for `O=C(CSc1ncncc1-c1cccc2ccccc12)Nc1ccc(C(=O)O)cc1Cl` (field: CC50) = 108

response.value for `CCOC(=O)c1ccc(NC(=O)CSc2ncncc2-c2cccc3ccccc23)c(Br)c1` (field: CC50) = 211

response.value for `NS(=O)(=O)c1ccc(NC(=O)CSc2ncncc2-c2cccc3ccccc23)c(Br)c1` (field: CC50) = 24.1

response.value for `O=C(CSc1ncncc1-c1cccc2ccccc12)Nc1ccc(C(=O)NO)cc1Cl` (field: CC50) = 4.8
